FYI, the data here is from ChEMBL document CHEMBL1833963.

Some compounds, each annotated with its measured MIC.
# Test system: Pseudomonas aeruginosa
# assay-comment: Antibacterial activity against colistin-sensitive Pseudomonas aeruginosa after 24 hrs by microbroth dilution method
# Format: functional
# unit: µg/mL | format: bare number

See these solved cases before continuing.
>>> quantitative_readout("C[C@@H](NCCCCCCN)[C@H]1CC[C@H]2[C@@H]3CCC4=C[C@@H](NCCCCCCN)CC[C@]4(C)[C@H]3CC[C@]12C")
20
>>> quantitative_readout("C[C@@H](NCCCN)[C@H]1CC[C@H]2[C@@H]3CCC4=C[C@@H](NCCCN)CC[C@]4(C)[C@H]3CC[C@]12C")
20

Requested read-out: MIC. Entry: "C[C@@H](NCCCCCCCCCCN)[C@H]1CC[C@H]2[C@@H]3CCC4=C[C@@H](NCCCCCCCCCCN)CC[C@]4(C)[C@H]3CC[C@]12C" 40
